Measured Ki, listed per entry for reference.
molecular target: human kisspeptin receptor (KISS1R) (human), Q969F8; assay: radioligand competition, hKISS1R membranes; legend: A is <10 nM
Sequence (Q969F8 whole entry): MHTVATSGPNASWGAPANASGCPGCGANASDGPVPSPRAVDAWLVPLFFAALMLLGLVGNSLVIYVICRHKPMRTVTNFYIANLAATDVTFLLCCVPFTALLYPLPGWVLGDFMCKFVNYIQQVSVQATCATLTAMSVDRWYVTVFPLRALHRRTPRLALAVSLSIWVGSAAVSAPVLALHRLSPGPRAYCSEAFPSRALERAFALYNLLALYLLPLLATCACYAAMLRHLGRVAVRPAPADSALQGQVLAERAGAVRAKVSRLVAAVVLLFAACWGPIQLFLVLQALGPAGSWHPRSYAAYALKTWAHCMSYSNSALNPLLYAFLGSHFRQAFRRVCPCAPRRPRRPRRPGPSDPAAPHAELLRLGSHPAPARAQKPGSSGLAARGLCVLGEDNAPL
Square brackets hold non-standard residues; d marks the D form. * marks the point of attachment. X10 = 3‑(2-(2-(3-(4-iodophenyl)propanamido)ethoxy)ethoxy)propanoyl, O=C(CCc1ccc(I)cc1)NCCOCCOCCC(=O)*; X6 = 3‑(2-(2-(3-(p-tolyl)propanamido)ethoxy)ethoxy)propanoyl, Cc1ccc(CCC(=O)NCCOCCOCCC(=O)*)cc1; DOTA = O=C(O)CN1CCN(CC(=O)O)CCN(CC(=O)*)CCN(CC(=O)O)CC1; Api(1-amidino) = N=C(N)N1CCC(N)(C(=O)O)CC1; Cha = N[C@@H](CC1CCCCC1)C(=O)O; azaGly = NNC(=O)O

Example entries and their recorded answers appear below.
binder	result type	result
X10-[dY]K(DOTA)NT[Cha][azaGly]L[Api(1-amidino)]W-NH2 (SMILES CC(C)C[C@H](NC(=O)NNC(=O)[C@H](CC1CCCCC1)NC(=O)[C@@H](NC(=O)[C@H](CC(N)=O)NC(=O)[C@H](CCCCNC(=O)CN1CCN(CC(=O)O)CCN(CC(=O)O)CCN(CC(=O)O)CC1)NC(=O)[C@@H](Cc1ccc(O)cc1)NC(=O)CCOCCOCCNC(=O)CCc1ccc(I)cc1)[C@@H](C)O)C(=O)NC1(C(=O)N[C@@H](Cc2c[nH]c3ccccc23)C(N)=O)CCN(C(=N)N)CC1) [Compound 327]	Ki	< 10 nM
{Me‑PEG25‑C(:O)}-[dY]K(DOTA)NTF[azaGly]L[Api(1-amidino)]W-NH2 [Compound 182]	Ki	< 10 nM

Challenge: Param item = X6-[dY]K(DOTA)NT[Cha][azaGly]L[4‑amino‑1‑carbamimidoylpiperidine‑4‑carboxylic acid(Sarcosine)][dW]-NH2 [Compound 356] ; retrieve measured Ki.
Response given: < 10 nM

Where do these numbers come from? They come from patent US20250312499A1.
